Measured values drawn from PubChem BioAssay AID2060602 for this set.

- Tested on: 648629-189-R-J1-PDC complex spheroids viability
- procedure.summary: Anticancer human tumor 648629-189-R-J1-PDC patient-derived bladder carcinoma cell line growth inhibition [CLK]; active = viability on the fitted dose curve at most 10% of control; inactive = the rest
- conditions.used: second compound 10 µM; first compound 3.16 µM
Pick one and only one: true (1) for active, false (0) for inactive

Data request: For this compound, state the assay outcome: C#Cc1c(F)ccc2cc(O)cc(-c3ncc4c(N5CC6CCC(C5)N6)nc(OCC56CCCN5CC(F)C6)nc4c3F)c12 (centres undefined) + CN1CCN(c2cc(C(=O)Nc3cc4cc(-c5cnn(C)c5)ccc4cn3)ccn2)CC1
Data returned: true (1)

Data request: Which outcome was entered for the compound CC(=O)O[C@H]1C(=O)[C@@]2(C)[C@H]([C@H](OC(=O)c3ccccc3)[C@]3(O)C[C@H](OC(=O)[C@H](O)[C@@H](NC(=O)c4ccccc4)c4ccccc4)C(C)=C1C3(C)C)[C@]1(OC(C)=O)CO[C@@H]1C[C@@H]2O + CNC(=O)c1ccc(Nc2nc(OC3CCCC3)c3c(-c4ccc5nc(C)oc5c4)c[nH]c3n2)c(OC)c1 in this test?
Data returned: false (0)

Data request: I'd appreciate the recorded outcome for CC(Nc1ccc2c(c1)OCCn1cc(N3C(=O)OCC3C(F)F)nc1-2)C(N)=O (centres undefined) + CN1CCN(c2cc(C(=O)Nc3cc4cc(-c5cnn(C)c5)ccc4cn3)ccn2)CC1 from this test.
Data returned: true (1)

Data request: Hi, sorry to bother you, what did the test record for CC1(C)CCC(CN2CCN(c3ccc(C(=O)NS(=O)(=O)c4ccc(NCC5CCOCC5)c([N+](=O)[O-])c4)c(Oc4cnc5[nH]ccc5c4)c3)CC2)=C(c2ccc(Cl)cc2)C1 + CN1CCN(c2cc(C(=O)Nc3cc4cc(-c5cnn(C)c5)ccc4cn3)ccn2)CC1 ?
Data returned: true (1)

* * *

- Test system: 648629-189-R-J1-PDC complex spheroids viability
- procedure.summary: Anticancer human tumor 648629-189-R-J1-PDC cell line growth inhibition [CLK];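 for viability, T/C: drug exposure lasted seven days before viability readout; 100% = DMSO vehicle control wells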
- conditions.used: second compound 3.16 µM; first compound 10 µM; stronger effect = lower value
observable: viability, T/C (%)
API: value field is a number in %; no unit string.

compound="O=C(c1cc(Cc2n[nH]c(=O)c3ccccc23)ccc1F)N1CCN(C(=O)C2CC2)CC1 + CNC(=O)c1ccc(Nc2nc(OC3CCCC3)c3c(-c4ccc5nc(C)oc5c4)c[nH]c3n2)c(OC)c1" subject_of_test="648629-189-R-J1-PDC complex spheroids viability" observable="viability, T/C" measured=19.2
compound="COC1C=CCC(C)C(C)S(=O)(=O)NC(=O)c2ccc3c(c2)N(CC2CCC21)CC1(CCCc2cc(Cl)ccc21)CO3 (stereo not drawn) + CN1CCN(c2cc(C(=O)Nc3cc4cc(-c5cnn(C)c5)ccc4cn3)ccn2)CC1" subject_of_test="648629-189-R-J1-PDC complex spheroids viability" observable="viability, T/C" measured=0.12
compound="O=c1[nH]cc(F)c(=O)[nH]1 + CNC(=O)c1ccc(Nc2nc(OC3CCCC3)c3c(-c4ccc5nc(C)oc5c4)c[nH]c3n2)c(OC)c1" subject_of_test="648629-189-R-J1-PDC complex spheroids viability" observable="viability, T/C" measured=10.6
compound="Nc1ccccc1NC(=O)c1ccc(CNC(=O)OCc2cccnc2)cc1 + CNC(=O)c1ccc(Nc2nc(OC3CCCC3)c3c(-c4ccc5nc(C)oc5c4)c[nH]c3n2)c(OC)c1" subject_of_test="648629-189-R-J1-PDC complex spheroids viability" observable="viability, T/C" measured=0.52
compound="O=C(c1cc(Cc2n[nH]c(=O)c3ccccc23)ccc1F)N1CCN(C(=O)C2CC2)CC1 + CN1CCN(c2cc(C(=O)Nc3cc4cc(-c5cnn(C)c5)ccc4cn3)ccn2)CC1" subject_of_test="648629-189-R-J1-PDC complex spheroids viability" observable="viability, T/C" measured=0.38

The compound identified as CC1COCCN1c1cc(C2(S(C)(=N)=O)CC2)nc(-c2ccnc3[nH]ccc23)n1 (stereo not drawn) + CNC(=O)c1ccc(Nc2nc(OC3CCCC3)c3c(-c4ccc5nc(C)oc5c4)c[nH]c3n2)c(OC)c1 registered its viability, T/C at 13.9

The reported viability, T/C of the compound CC(=O)O[C@H]1C(=O)[C@@]2(C)[C@H]([C@H](OC(=O)c3ccccc3)[C@]3(O)C[C@H](OC(=O)[C@H](O)[C@@H](NC(=O)c4ccccc4)c4ccccc4)C(C)=C1C3(C)C)[C@]1(OC(C)=O)CO[C@@H]1C[C@@H]2O + CN1CCN(c2cc(C(=O)Nc3cc4cc(-c5cnn(C)c5)ccc4cn3)ccn2)CC1 was 0.1

GET /value?item= CC1(C)CCC(CN2CCN(c3ccc(C(=O)NS(=O)(=O)c4ccc(NCC5CCOCC5)c([N+](=O)[O-])c4)c(Oc4cnc5[nH]ccc5c4)c3)CC2)=C(c2ccc(Cl)cc2)C1 + CN1CCN(c2cc(C(=O)Nc3cc4cc(-c5cnn(C)c5)ccc4cn3)ccn2)CC1 &field=viability, T/C returns 0.7

* * *

- Tested on: 648629-189-R-J1-PDC complex spheroids viability
- procedure.summary: Anticancer human tumor 648629-189-R-J1-PDC cell line growth inhibition [CLK];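 for viability, T/C: drug exposure lasted seven days before viability readout; 100% = DMSO vehicle control wells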
- conditions.used: second compound 0.1 µM; first compound 10 µM; stronger effect = lower value
We label by threshold. Values of viability, T/C strictly beneath 50% are class 1. Values of 50% and up are class 0.

The following molecules have reported results that may help.
molecule="COc1ccc([C@@H](O)c2cc(-c3ncnc4cc(N5CCOCC5)ccc34)c(F)cc2Cl)nn1 + CN1CCN(c2cc(C(=O)Nc3cc4cc(-c5cnn(C)c5)ccc4cn3)ccn2)CC1" class_name="class 1"
molecule="C#Cc1c(F)ccc2cc(O)cc(-c3ncc4c(N5CC6CCC(C5)N6)nc(OCC56CCCN5CC(F)C6)nc4c3F)c12 (stereo not given) + CNC(=O)c1ccc(Nc2nc(OC3CCCC3)c3c(-c4ccc5nc(C)oc5c4)c[nH]c3n2)c(OC)c1" class_name="class 1"
molecule="C=CC(=O)N1CCN(c2nc(=O)n(-c3c(C)ccnc3C(C)C)c3nc(-c4c(O)cccc4F)c(F)cc23)C(C)C1 (stereo not given) + CNC(=O)c1ccc(Nc2nc(OC3CCCC3)c3c(-c4ccc5nc(C)oc5c4)c[nH]c3n2)c(OC)c1" class_name="class 0"
molecule="Nc1ccccc1NC(=O)c1ccc(CNC(=O)OCc2cccnc2)cc1 + CNC(=O)c1ccc(Nc2nc(OC3CCCC3)c3c(-c4ccc5nc(C)oc5c4)c[nH]c3n2)c(OC)c1" class_name="class 1"

Next molecule, please.
Data request: Regarding CC1(C)CCC(CN2CCN(c3ccc(C(=O)NS(=O)(=O)c4ccc(NCC5CCOCC5)c([N+](=O)[O-])c4)c(Oc4cnc5[nH]ccc5c4)c3)CC2)=C(c2ccc(Cl)cc2)C1 + CN1CCN(c2cc(C(=O)Nc3cc4cc(-c5cnn(C)c5)ccc4cn3)ccn2)CC1 , kindly confirm whether its viability, T/C is beneath 50%.
Data returned: class 0

* * *

Known IC50 of a selection of molecules
- Tested on: 648629-189-R-J1-PDC complex spheroids viability
- procedure.summary: Anticancer human tumor 648629-189-R-J1-PDC cell line growth inhibition [CLK]
- conditions.used: curve of first compound; second compound 0.316 µM

molecule="CC(=O)O[C@H]1C(=O)[C@@]2(C)[C@H]([C@H](OC(=O)c3ccccc3)[C@]3(O)C[C@H](OC(=O)[C@H](O)[C@@H](NC(=O)c4ccccc4)c4ccccc4)C(C)=C1C3(C)C)[C@]1(OC(C)=O)CO[C@@H]1C[C@@H]2O + CN1CCN(c2cc(C(=O)Nc3cc4cc(-c5cnn(C)c5)ccc4cn3)ccn2)CC1" observable=IC50 measured="< 31.6 nM"

We now examine a further molecule.
# IC50 (molecule: NC(=O)C(=Cn1cnc(-c2cc(C(F)(F)F)cc(C(F)(F)F)c2)n1)c1cncnc1 + CN1CCN(c2cc(C(=O)Nc3cc4cc(-c5cnn(C)c5)ccc4cn3)ccn2)CC1 ) is < 9.49 nM

* * *

- System: 648629-189-R-J1-PDC complex spheroids viability
- procedure.summary: Anticancer human tumor 648629-189-R-J1-PDC cell line growth inhibition [CLK]; active means viability on the fitted dose curve at most 10% of control; inactive means the rest
- conditions.used: second compound 1 µM; first compound 0.316 µM
Select the matching outcome among class 1 for active, class 0 for inactive

Example cases with answers are listed next.
molecule="O=C(c1cc(Cc2n[nH]c(=O)c3ccccc23)ccc1F)N1CCN(C(=O)C2CC2)CC1 + CN1CCN(c2cc(C(=O)Nc3cc4cc(-c5cnn(C)c5)ccc4cn3)ccn2)CC1" class_name="class 1"
molecule="C=CC(=O)N1CCN(c2nc(=O)n(-c3c(C)ccnc3C(C)C)c3nc(-c4c(O)cccc4F)c(F)cc23)C(C)C1 (stereo not given) + CN1CCN(c2cc(C(=O)Nc3cc4cc(-c5cnn(C)c5)ccc4cn3)ccn2)CC1" class_name="class 1"
molecule="Nc1ccn(C2OC(CO)C(O)C2(F)F)c(=O)n1 (stereo not given) + CN1CCN(c2cc(C(=O)Nc3cc4cc(-c5cnn(C)c5)ccc4cn3)ccn2)CC1" class_name="class 1"

Data request: Tell me the assay call for C=CC(=O)N1CCN(c2nc(=O)n(-c3c(C)ccnc3C(C)C)c3nc(-c4c(O)cccc4F)c(F)cc23)C(C)C1 (stereo not given) + CNC(=O)c1ccc(Nc2nc(OC3CCCC3)c3c(-c4ccc5nc(C)oc5c4)c[nH]c3n2)c(OC)c1 please.
Data returned: class 0

Data request: // outcome(item) with item = CC(CO)NC(=O)c1cc(-c2ccc(Cl)cc2)nn(-c2cnn(C)c2)c1=O (stereo not given) + CNC(=O)c1ccc(Nc2nc(OC3CCCC3)c3c(-c4ccc5nc(C)oc5c4)c[nH]c3n2)c(OC)c1
Data returned: class 0
